Tested on: spontaneously hypertensive rats
Assay: Anti-hypertensive activity in the unanesthetized spontaneously hypertensive rat (SHR) assay
Assay type: in vivo
Conditions: 10 mg/kg intravenous, SHR
Where a name gives a salt, the structure may show the parent alone.
Task for the reader: assign each of the following compounds its reported SHR mm Hg @ 10 mg/kg intravenous (blood pressure lowering).
Give the number; mm Hg is assumed, so skip it.

Input: Short answer please: SHR mm Hg @ 10 mg/kg intravenous (blood pressure lowering), spontaneously hypertensive rats, entry c1ccc(COc2ccc(CN3CCC(C(c4ccccc4)c4ccccc4)CC3)cc2)cc1 [Example 6, hydrochloride]
Output: 88

Input: What would you report for `COc1ccc(CN2CCC(C(c3ccccc3)c3ccccc3)CC2)cc1OCc1ccccc1` ?
Output: 79

Input: Now the compound `Fc1ccccc1COc1ccc(CN2CCC(C(c3ccccc3)c3ccccc3)CC2)cc1`
Output: 65

Input: Moving on to the next compound: `COc1ccc(CN2CCC(C(c3ccccc3)c3ccccc3)CC2)cc1OCc1ccc(Cl)cc1`
Output: 75

Input: Would you mind doing `Fc1ccc(C(c2ccc(F)cc2)C2CCN(Cc3ccc(OCc4ccccc4)cc3)CC2)cc1` as well?
Output: 67

Input: Would you kindly repeat that for `COc1cc(CN2CCC(C(c3ccccc3)c3ccccc3)CC2)ccc1OCc1ccccc1` ?
Output: 18

Input: Now give it for `COc1ccc(COc2ccc(CN3CCC(C(c4ccc(F)cc4)c4ccc(F)cc4)CC3)cc2)cc1` too.
Output: 50

Input: And the next one, `Cc1ccc(COc2ccc(CN3CCC(C(c4ccccc4)c4ccccc4)CC3)cc2)cc1` ?
Output: 56

Input: And for `CC(C)(C)NC(=O)c1cc(OCc2ccccc2)ccc1CN1CCC(C(c2ccccc2)c2ccccc2)CC1` ?
Output: 29

Input: Again, but for Fc1ccc(C(c2ccc(F)cc2)C2CCN(Cc3ccc(OCc4ccc(Cl)cc4)cc3)CC2)cc1 [Example 11, hydrobromide]
Output: 107

Input: How about `Clc1ccc(COc2ccc(CN3CCC(C(c4ccccc4)c4ccccc4)CC3)cc2)cc1` ?
Output: 89

Input: Similarly, Fc1ccc(C(c2ccc(F)cc2)C2CCN(Cc3ccc(OCc4ccc(Cl)cc4Cl)cc3)CC2)cc1 [Example 12, hydrochloride] ?
Output: 79

Input: Next up: `Clc1ccc(COc2ccc(CN3CCC(C(c4ccccc4)c4ccccc4)CC3)cc2)cc1Cl`
Output: 81

Cited source: patent US4650874A
